# TEST_DESCRIPTION: Phase 1 single ascending dose (SAD) trial, plasma pharmacokinetics (Part 1)
# CONDITION_NOTES: male, human, in vivo, po, 180 mg, T1/2, human plasma; Regimen D: 180 mg TQS-168 SDD oral suspension, fasted, single dose; geometric mean
PARAMETER_MEASURED: half-life
I'd appreciate it if you wrote the number followed by its unit.

Prompt line: Endpoint output: half-life of `CC(C)(C)c1ccc(-c2nc3ccccc3[nH]2)cc1` . Value?
Response line: 5.64 h

====

# TEST_DESCRIPTION: Plasma concentrations of TQS-168 and TQS-621 after single oral dose 50 mg/kg in mice, three formulations
# Type: in vivo
# CONDITION_NOTES: male, C57BL/6, mouse, plasma, po, 50 mg/kg, mice plasma, TQS-168 50 mg/kg p.o., Group 3 (suspension, Labrafil/Masine/Miglyol/water), mean
PARAMETER_MEASURED: AUC(0-inf) (ng·h/mL)
Answers are plain numbers, in ng·h/mL.

Hello, I would appreciate it if you could give AUC(0-inf) for each entry below.
1. CC(C)(C)c1ccc(-c2nc3cc(O)ccc3[nH]2)cc1
2. CC(C)(C)c1ccc(-c2nc3ccccc3[nH]2)cc1

Response line:
1: 584; 2: 4150
